# method_summary: Release rate of pesticides from controlled release devices, one inch squares of 1/8 inch sheets (Example 3)
# Type: physicochemical
# condition_context: Polyethylene MA 778-000, 10 percent pesticide
observation_type: Release Rate (μg/cm^2/day)
Write the number in μg/cm^2/day without appending the unit.

Identify the reported Release Rate for the following entry. CC1(C)[C@H](C(=O)O[C@H](C#N)c2cccc(Oc3ccccc3)c2)[C@@H]1/C=C(\Cl)C(F)(F)F (racemic)
4.6

Identify the reported Release Rate for the following entry. CC1(C)C(C=C(Cl)Cl)C1C(=O)OC(C#N)c1cccc(Oc2ccccc2)c1 (stereo not shown)
4.6

Identify the reported Release Rate for the following entry. Cc1c(F)c(F)c(COC(=O)[C@@H]2[C@H](/C=C(\Cl)C(F)(F)F)C2(C)C)c(F)c1F (racemic)
27.0

Identify the reported Release Rate for the following entry. CC1(C)C(C=C(Cl)Cl)C1C(=O)OCc1cccc(Oc2ccccc2)c1 (stereo not shown)
4.0
